Give pEC50 for every item shown.
Target: Transthyretin (Homo sapiens, UniProt P02766)
Experiment: Binding of Examples to Transthyretin - EC50 Determination
Answers are plain numbers, as −log10 of the molar value.

Take a look at these entries with their results.
Cc1[nH]nc(C#N)c1-c1ccc(C)c2scnc12: 7.70
Cc1n[nH]c(C)c1-c1cc(F)cc2scnc12: 7.68

For every item below, please supply its pEC50.
1. Cc1cc(-c2c(C)n[nH]c2C)c2ncsc2c1
2. COc1cc(-c2c(C)n[nH]c2C)c2ncsc2c1
3. Cc1[nH]nc(C#N)c1-c1ccc(C(F)(F)F)c2scnc12
4. Cc1n[nH]c(C)c1-c1cccc2ncsc12

A:
7.68
7.60
7.44
7.85
